// provenance: patent US20110039873A1

Experimental details: Oral pharmacokinetic evaluation
Format: in vivo, rat
Protocol conditions: male, Sprague-Dawley, rat, plasma, po, 15 mg/kg, Sprague-Dawley rats, 15 mg/kg oral gavage, plasma; read-out: Oral PK T½ (converted)
Binary label based on half-life with cut-off 2 h: below gives Criterion met, not below gives Criterion not met.

# example entries with known answers
Compound	Answer label
Fc1cccc(-c2nn3ccccc3c2-c2ccnc(NC3CCCC3)n2)c1 [AV1180]	Criterion met
CC(C)Nc1nccc(-c2c(C3CC3)nn3ccccc23)n1 [AV1173]	Criterion not met
c1ccn2nc(C3CC3)c(-c3ccnc(NC4CC4)n3)c2c1 [AV1200]	Criterion not met

Now take the following compound into account.
## Input half-life under 2 h? Item: Brc1cccc(-c2nn3ccccc3c2-c2ccnc(NC3CCCC3)n2)c1 [AV1195]
## Output Criterion met
